Target: T1, Human CD3eg linker (human)
T1 construct: Single chain: epsilon and gamma subunits of human CD3 joined by a 29-mer linker, Flag-tag at the C-terminus; also called recombinant human CD3
T1 chain: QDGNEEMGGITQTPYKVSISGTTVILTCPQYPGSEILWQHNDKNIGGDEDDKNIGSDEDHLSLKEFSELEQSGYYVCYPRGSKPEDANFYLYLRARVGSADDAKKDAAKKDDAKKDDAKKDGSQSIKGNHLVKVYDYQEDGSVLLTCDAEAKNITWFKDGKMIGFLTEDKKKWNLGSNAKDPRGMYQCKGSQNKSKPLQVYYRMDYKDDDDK
Test: Biacore SPR, vs template H183/L072
Readout type: fold change of affinity
Give your result as the value with the unit written after it.

- Binder: "H183/L072 VH I51T (antibody, name in Kabat numbering, V domains shown) VH: QVQLVESGGGLVQPGRSLRLSCAASGFTFSNAWMHWVRQAPGKGLEWVAQTKDKGNAYAAYYAPSVKGRFTISRDDSKNSIYLQMNSLKTEDTAVYYCHYVHYASASTVLPAFGVDAWGQGTTVTVSS VL: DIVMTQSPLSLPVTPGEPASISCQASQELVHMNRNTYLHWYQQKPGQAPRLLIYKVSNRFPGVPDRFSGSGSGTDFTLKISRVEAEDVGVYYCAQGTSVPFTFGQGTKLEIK"
  Readout type: "fold change of affinity"
  Value observed: "0.2 fold"

Now let's try a different one.
Kindly note the recorded fold change of affinity for H183/L072 VH D52aY (antibody, name in Kabat numbering, V domains shown) VH: QVQLVESGGGLVQPGRSLRLSCAASGFTFSNAWMHWVRQAPGKGLEWVAQIKYKGNAYAAYYAPSVKGRFTISRDDSKNSIYLQMNSLKTEDTAVYYCHYVHYASASTVLPAFGVDAWGQGTTVTVSS VL: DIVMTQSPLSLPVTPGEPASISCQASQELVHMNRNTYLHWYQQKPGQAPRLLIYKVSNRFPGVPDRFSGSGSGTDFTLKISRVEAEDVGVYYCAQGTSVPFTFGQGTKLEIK , which is 0 fold

Data origin: patent US20210388087A1
